# STUDY TARGET: Substance-K receptor (Homo sapiens)
# Sequence (P21452 whole entry): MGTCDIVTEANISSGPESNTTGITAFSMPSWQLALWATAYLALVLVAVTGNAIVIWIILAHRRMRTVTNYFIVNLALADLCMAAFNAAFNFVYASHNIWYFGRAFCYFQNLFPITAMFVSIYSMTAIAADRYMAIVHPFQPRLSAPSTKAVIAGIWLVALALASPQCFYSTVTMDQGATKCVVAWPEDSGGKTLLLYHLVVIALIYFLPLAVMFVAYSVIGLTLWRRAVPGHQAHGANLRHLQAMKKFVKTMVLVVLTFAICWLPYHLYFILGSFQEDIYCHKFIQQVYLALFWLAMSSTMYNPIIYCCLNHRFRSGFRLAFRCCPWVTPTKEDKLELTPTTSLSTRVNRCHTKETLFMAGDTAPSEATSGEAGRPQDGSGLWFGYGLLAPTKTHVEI
# PROTOCOL TEXT: Inhibition of cloned human NK2 (Neurokinin 2) receptor, stably expressed in chinese hamster ovary (CHO) cells was determined
pIC50: −log10 of the molar value.
The following molecules are shown together with reported pIC50 values.

STRUCTURE AS SMILES	pIC50
O=C(NCCc1ccccc1)[C@H](Cc1c[nH]c2ccccc12)NC(=O)N1CCC2(CCc3ccccc32)CC1	6.68
CC(=O)N[C@@H](Cc1c[nH]c2ccccc12)C(=O)OCc1cc(C(F)(F)F)cc(C(F)(F)F)c1	< 5.30

[Q] Indicate its recorded pIC50; the molecule in question is CNC(=O)N[C@@H](Cc1c[nH]c2ccccc12)C(=O)OCc1cc(C)cc(C)c1
[A] < 5.30

[Q] For the molecule Cc1cc(C)cc(CN(C)C(=O)[C@H](Cc2c[nH]c3ccccc23)NC(=O)c2ccccc2)c1 , give its reported pIC50.
[A] < 5.30

[Q] Name the recorded pIC50 of the item CSN1CC2(CCN(C(=O)N[C@@H](Cc3c[nH]c4ccccc34)C(=O)OCc3cc(C(F)(F)F)cc(C(F)(F)F)c3)CC2)c2ccccc21 in your answer.
[A] < 6.00
